Experiment: LogP by HPLC on reversed phase columns (EEC directive 79/831 Annex V.A8)
Assay type: physicochemical
Conditions: method [a]: LC-UV, acidic range, 0.1% formic acid in water and acetonitrile as eluent
Protocol: [table] If more than one Log P value is available within the same method, all the values are given and separated by “+”. […] Lambda-max-values were determined using UV-spectra from 200 nm to 400 nm and the peak values of the chromatographic signals.
quantity kind: LogP

Sample records with LogP:
Fc1ccc(C2(C3(Oc4c(Cl)cc(F)cc4Cl)CC3)CO2)c(F)c1 (stereo not drawn) [Example V-12]
4.98^[a]
OC(Cn1cncn1)(c1ccc(F)cc1F)C1(Oc2c(F)ccc(F)c2Cl)CC1 (racemic) [Example I-29]
3.42^[a]
COC(Cn1cncn1)(c1ccc(Cl)cc1F)C1(Oc2c(F)cc(Cl)cc2F)CC1 (racemic) [Example I-25]
4.41^[a]
O=C(c1ccc(F)cc1F)C1(Oc2c(Cl)cc(SC(F)(F)F)cc2Cl)CC1 [IV-13]
5.85^[a]
Fc1cc(Cl)ccc1C1(C2(Oc3c(F)cc(Cl)cc3F)CC2)CO1 (stereo not drawn) [Example V-14]
5.23^[a]
O=C(c1ccc(Cl)cc1F)C1(Oc2c(F)cc(Cl)cc2F)CC1 [IV-16]
5.03^[a]
O=C(c1ccc(F)cc1F)C1(Oc2c(F)cc(Br)cc2F)CC1 [IV-3]
4.54^[a]
OC(Cn1cncn1)(c1ccc(F)cc1F)C1(Oc2c(Cl)cc(Br)cc2Cl)CC1 (racemic) [Example I-12]
4.62^[a]
OC(Cn1cncn1)(c1ccc(F)cc1F)C1(Oc2cc(F)c(F)cc2F)CC1 (racemic) [Example I-28]
3.17^[a]
Fc1ccc(C2(C3(Oc4c(Cl)ccc(Cl)c4Cl)CC3)CO2)c(F)c1 (racemic) [Example V-09]
5.27^[a]

Q: I would be grateful if you could share the reported LogP for Fc1ccc(C2(C3(Oc4cc(F)c(F)cc4F)CC3)CO2)c(F)c1 (stereo not drawn) [Example V-17] .
Ans: 4.10^[a]

Q: Give the measured LogP of COC(Cn1cncn1)(c1ccc(F)cc1F)C1(Oc2c(F)ccc(Cl)c2F)CC1 (racemic) [Example I-17] .
Ans: 3.85^[a]

Q: Param item = Fc1ccc(C2(C3(Oc4c(Cl)cc(Cl)cc4Cl)CC3)CO2)c(F)c1 (racemic) [Example V-07] ; retrieve measured LogP.
Ans: 5.56^[a]

Q: So what does the record say about LogP for O=C(c1ccc(Cl)cc1F)C1(Oc2c(F)cc(F)cc2F)CC1 [IV-15] ?
Ans: 4.49^[a]

Q: GET /values?readout=LogP&item= O=C(c1ccc(F)cc1F)C1(Oc2ccc(F)c(F)c2F)CC1 [IV-17]
Ans: 4.01^[a]

Q: Suppose we examine the compound OC(Cn1cncn1)(c1ccc(F)cc1F)C1(Oc2c(F)cc(Br)cc2F)CC1 (single isomer, unassigned) [Example I-22] ; what LogP value has been reported?
Ans: 3.63^[a]

Q: Dear colleague, I am looking for the recorded LogP of the following compound: Fc1ccc(C2(C3(Oc4c(F)ccc(F)c4Cl)CC3)CO2)c(F)c1 (stereo not drawn) [Example V-19]
Ans: 4.35^[a]

Q: Please report the recorded LogP for Fc1ccc(C2(C3(Oc4c(Cl)cc(Br)cc4Cl)CC3)CO2)c(F)c1 (racemic) [Example V-08] .
Ans: 5.72^[a]

Q: For OC(Cn1cncn1)(c1ccc(F)cc1F)C1(Oc2c(F)ccc(Cl)c2F)CC1 (racemic) [Example I-08] , what is its reported LogP?
Ans: 3.39^[a]

Q: What does the data say about its LogP? Entry: O=C(c1ccc(F)cc1F)C1(Oc2c(Cl)cc(C(F)(F)F)cc2Cl)CC1 [IV-11]
Ans: 5.25^[a]

Q: For the compound Fc1ccc(C2(C3(Oc4cc(F)c(F)c(F)c4)CC3)CO2)c(F)c1 (racemic) [Example V-04] , what LogP is on record?
Ans: 4.64^[a]

Data provenance: patent US20180057467A1
